Some sequences, each annotated with its measured PBM binding z-score.
Tested on: PPARg:RXRa 30nM:10nM, anti-RXR (NR concentration 30 nM, RXRa partner concentration 10 nM)
PROCEDURE SUMMARY: PBM binding z-score (relative to random genomic background probes); higher = stronger binding; sequences stand for … in GC…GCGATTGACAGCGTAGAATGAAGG

Consider the reported PBM binding z-score for these sequences:
RESIDUE STRING: TCATATAGGTAAACAGGTGAAACTCCGTAAGTTA
TARGET OR TEST SYSTEM: PPARg:RXRa 30nM:10nM, anti-RXR (NR concentration 30 nM, RXRa partner concentration 10 nM)
PBM binding z-score: 4.07
//
RESIDUE STRING: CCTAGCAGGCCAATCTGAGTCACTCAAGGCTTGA
TARGET OR TEST SYSTEM: PPARg:RXRa 30nM:10nM, anti-RXR (NR concentration 30 nM, RXRa partner concentration 10 nM)
PBM binding z-score: -0.966
//
RESIDUE STRING: GCGACTGGGGCATCAGCCGGTTACCATAACTTAA
TARGET OR TEST SYSTEM: PPARg:RXRa 30nM:10nM, anti-RXR (NR concentration 30 nM, RXRa partner concentration 10 nM)
PBM binding z-score: -0.73
//
RESIDUE STRING: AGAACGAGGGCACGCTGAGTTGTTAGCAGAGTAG
TARGET OR TEST SYSTEM: PPARg:RXRa 30nM:10nM, anti-RXR (NR concentration 30 nM, RXRa partner concentration 10 nM)
PBM binding z-score: 0.32
//
RESIDUE STRING: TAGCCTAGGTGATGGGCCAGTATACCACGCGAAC
TARGET OR TEST SYSTEM: PPARg:RXRa 30nM:10nM, anti-RXR (NR concentration 30 nM, RXRa partner concentration 10 nM)
PBM binding z-score: -0.547

PBM binding z-score for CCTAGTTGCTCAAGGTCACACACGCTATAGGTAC is 0.986

----------
Tested on: PXR:RXRa (NR concentration 270 nM, RXRa partner concentration 90 nM)
PROCEDURE SUMMARY: PBM binding z-score (relative to random genomic background probes); higher = stronger binding; sequences stand for … in GC…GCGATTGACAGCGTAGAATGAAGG
Everything with PBM binding z-score lower than 3 is NOT MET; everything else, including exactly 3, is MET.

Answered examples (5):
RESIDUE STRING: CCTCCTGGGCCAAAGGTCATTGATTCCAATGCTC
QUALITATIVE LABEL: MET
--
RESIDUE STRING: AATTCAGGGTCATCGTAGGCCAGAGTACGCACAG
QUALITATIVE LABEL: MET
--
RESIDUE STRING: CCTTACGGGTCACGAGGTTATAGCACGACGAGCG
QUALITATIVE LABEL: MET
--
RESIDUE STRING: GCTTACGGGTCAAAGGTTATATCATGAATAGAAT
QUALITATIVE LABEL: MET
--
RESIDUE STRING: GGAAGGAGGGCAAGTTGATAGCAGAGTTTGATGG
QUALITATIVE LABEL: NOT MET

Request: Check the entry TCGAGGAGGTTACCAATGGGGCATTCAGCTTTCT : does PBM binding z-score equal or exceed 3?
Result: NOT MET
